Data credit: ChEMBL document CHEMBL3988442

Biological target: Ubiquitin-activating enzyme e1, putative (Leishmania donovani (strain BPK282A1)) (UniProt E9BSI1)
Sequence (E9BSI1 as listed by the source): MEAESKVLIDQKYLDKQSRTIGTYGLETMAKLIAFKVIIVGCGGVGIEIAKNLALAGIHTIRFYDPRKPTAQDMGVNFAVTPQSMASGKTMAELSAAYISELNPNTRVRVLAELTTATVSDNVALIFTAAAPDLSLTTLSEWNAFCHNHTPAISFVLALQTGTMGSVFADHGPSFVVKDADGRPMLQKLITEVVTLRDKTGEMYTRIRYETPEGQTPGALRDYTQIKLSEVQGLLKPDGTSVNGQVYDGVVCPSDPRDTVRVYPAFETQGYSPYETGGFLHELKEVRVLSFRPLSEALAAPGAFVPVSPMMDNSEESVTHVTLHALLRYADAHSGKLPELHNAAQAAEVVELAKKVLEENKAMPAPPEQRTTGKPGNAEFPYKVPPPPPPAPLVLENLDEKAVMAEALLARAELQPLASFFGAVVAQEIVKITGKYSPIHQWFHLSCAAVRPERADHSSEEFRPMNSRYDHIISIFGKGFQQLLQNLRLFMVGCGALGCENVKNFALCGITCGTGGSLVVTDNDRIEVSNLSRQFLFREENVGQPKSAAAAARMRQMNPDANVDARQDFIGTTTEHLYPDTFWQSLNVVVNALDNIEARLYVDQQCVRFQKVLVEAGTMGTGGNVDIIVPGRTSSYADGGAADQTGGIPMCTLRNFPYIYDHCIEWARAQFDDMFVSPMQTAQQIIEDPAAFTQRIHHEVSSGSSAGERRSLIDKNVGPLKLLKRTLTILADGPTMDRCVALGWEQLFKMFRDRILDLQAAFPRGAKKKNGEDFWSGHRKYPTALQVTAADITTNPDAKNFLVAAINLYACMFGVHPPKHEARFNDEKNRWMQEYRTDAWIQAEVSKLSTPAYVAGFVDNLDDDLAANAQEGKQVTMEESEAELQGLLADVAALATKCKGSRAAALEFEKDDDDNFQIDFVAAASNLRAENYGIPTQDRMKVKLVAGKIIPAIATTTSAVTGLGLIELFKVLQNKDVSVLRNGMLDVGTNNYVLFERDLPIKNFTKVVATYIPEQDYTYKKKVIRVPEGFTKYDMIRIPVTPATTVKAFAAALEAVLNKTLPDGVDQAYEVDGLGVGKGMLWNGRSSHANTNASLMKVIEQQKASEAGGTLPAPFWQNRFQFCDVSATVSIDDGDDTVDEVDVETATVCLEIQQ
Experiment: Leishmania donovani Ubiquitin Activating Enzyme (LdE1)
Format: functional
Parameters: scale not given: direction of the effect not stated beside the values
Settings: 30 µM
Entries with a potency or affinity are not part of this list.
# maps each entry to its Percent Effect

Compound: COCCC(=O)N1CCC(c2noc3nc(C)cc(C(F)(F)F)c23)CC1
Percent Effect, %: 6.76

Compound: COCCN1CCN(C(=O)c2ccncc2F)Cc2cccnc21
Percent Effect, %: 6.67

Compound: COc1ccc(NC(=O)N2CCN(c3ncccn3)CC2)cn1
Percent Effect, %: 8.22

Compound: CC(O)CN1CCN(C(=O)c2cnn(-c3ccc(Cl)cc3)c2)CC1 (stereo not drawn)
Percent Effect, %: 5.33

Compound: Cn1ccc(-c2cc(C(=O)N3CCOCC3)c3ccccn23)n1
Percent Effect, %: 10.8

Compound: COc1ccc(NC(=O)C(c2cccc(F)c2)N2CCOCC2)cc1 (stereo not drawn)
Percent Effect, %: 0

Compound: CCc1cc(C)c(C(=O)N2CCCC2CC(=O)c2cnn(C)c2)o1 (stereo not drawn)
Percent Effect, %: -1.27

Compound: CN(C(=O)NCCCN1CCCC1)C1CCN(c2ccccc2)C1=O (stereo not drawn)
Percent Effect, %: 15.8

Compound: O=c1oc(-c2ccc(F)cc2)nn1CN1CCN(C2CCCC2)CC1
Percent Effect, %: 18.2

Compound: CNC1CCCN(Cc2noc(C3CC3)n2)C1 (stereo not drawn)
Percent Effect, %: -5.41

Compound: CN(CCCOc1ccc(F)cc1)Cc1nc2c(cnn2C)c(=O)[nH]1
Percent Effect, %: 15.8

Compound: Cc1cnn(CC2CCCN2C(=O)c2ccc3cc[nH]c3c2)c1 (stereo not drawn)
Percent Effect, %: 1.27

Compound: CCS(=O)(=O)N1CCC(c2nnc(CN3CCCC3)n2C2CC2)CC1
Percent Effect, %: 8

Compound: O=C(COc1cccc(Br)c1)N1CCN(c2nccs2)CC1
Percent Effect, %: 18.7

Compound: Cc1noc(C)c1CNCC1CCN(CC(O)c2ccccc2)CC1 (stereo not drawn)
Percent Effect, %: 11.4

Compound: CCC(=O)N(C)C1CCN(Cc2ncc(C)c(OC)c2C)CC1
Percent Effect, %: 18.2

Compound: CCn1cc(CN(C)S(=O)(=O)c2ccc(Cl)cc2)cn1
Percent Effect, %: 14.7

Compound: O=C(c1ccccc1N1CCOCC1)N1CCCC(n2cccn2)C1 (stereo not drawn)
Percent Effect, %: 2.7

* * *

Target: Arginase-2, mitochondrial (Homo sapiens) (UniProt P78540)
Sequence (P78540 whole entry): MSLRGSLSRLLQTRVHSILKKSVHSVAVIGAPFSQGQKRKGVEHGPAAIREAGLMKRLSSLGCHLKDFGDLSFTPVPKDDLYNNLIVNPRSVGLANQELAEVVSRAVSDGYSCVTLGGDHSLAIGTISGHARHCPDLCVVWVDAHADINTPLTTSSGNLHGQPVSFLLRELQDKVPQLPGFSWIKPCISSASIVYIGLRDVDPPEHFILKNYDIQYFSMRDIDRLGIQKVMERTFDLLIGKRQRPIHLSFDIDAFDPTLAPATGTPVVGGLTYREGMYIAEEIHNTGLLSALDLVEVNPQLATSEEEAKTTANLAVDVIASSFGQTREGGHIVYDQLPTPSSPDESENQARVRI
Experiment: in vitro enzyme assay to detect the production of urea directly proportional to the activity of Arginase II; note: in the data most compounds retested in dose-response had high values
Type: functional
Design: scale not given: direction of the effect not stated beside the values
Details: 33.3 µM
Property label: Percent Effect (%)

Compound: CS(=O)(=O)NCCCN1CCCCC1c1cc2ccccc2[nH]1 (stereo unspecified)
Recorded result: -7.22
//
Compound: Cc1noc(C)c1CN1CC[C@H]2OCC[C@@H](C(=O)N3CCCO3)[C@@H]2C1
Recorded result: -43.5
//
Compound: CC(=O)Nc1cccc(OCCNC(=O)N(C)Cc2ccco2)c1
Recorded result: -4.73
//
Compound: CCn1c(C)cc(C(=O)N2CCCC(c3nc(C)no3)C2)c1C (stereo unspecified)
Recorded result: 1.47
//
Compound: Cc1nccc(CN2CCC(c3nnsc3S(C)(=O)=O)CC2)n1
Recorded result: -1.16
//
Compound: COc1ccc(C2=CCN(C(=O)CN(C)CC(C)C#N)CC2)cc1 (stereo unspecified)
Recorded result: -6.84
